RECORDED_CONDITIONS: in ethanol, 339.8 K
METRIC: solubility (mole fraction)

CCn1nc(C(=O)O)c(=O)c2cc3c(cc21)OCO3 : 0.00028

----------
Recorded solubility (mole fraction) by entry
RECORDED_CONDITIONS: in water, 323.2 K
METRIC: solubility (mole fraction)

CC1CCc2cc(F)cc3c(=O)c(C(=O)O)cn1c23 (stereo not drawn) : 3.8e-05
CCn1cc(C(=O)O)c(=O)c2cc(F)c(N3CCNCC3)cc21 : 1.7e-05
CCn1nc(C(=O)O)c(=O)c2cc3c(cc21)OCO3 : 9.9e-06

----------
RECORDED_CONDITIONS: in water, 338.7 K
METRIC: solubility (mole fraction)

CCn1cc(C(=O)O)c(=O)c2cc(F)c(N3CCNC(C)C3)c(F)c21.Cl (stereo unspecified) : 0.00134
